# assay.explanation: Plasma PK study in WT and NF1 minipigs (LC-MS/MS, noncompartmental)
# Assay type: in vivo, minipig
# test.parameters: male, minipig, po, 7.3 mg/kg, individual WT M minipigs, single oral 7.3 mg/kg
outcome.measure: half-life
Kindly report the value followed by its unit.

Query: Return the recorded half-life value; entry: Cn1cnc2c(F)c(Nc3ccc(Br)cc3Cl)c(C(=O)NOCCO)cc21 [selumetinib]
Response: 12.3 h

* * *

# assay.explanation: Plasma PK study in WT and NF1 minipigs (LC-MS/MS, noncompartmental)
# Type: in vivo, minipig
# test.parameters: minipig, po, 7.3 mg/kg, all 16 minipigs (WT and NF1), median (range), single oral 7.3 mg/kg, read-out: Cmax
outcome.measure: Cmax (ng/mL)
Numbers only, in ng/mL.

Query: Using the record for Cn1cnc2c(F)c(Nc3ccc(Br)cc3Cl)c(C(=O)NOCCO)cc21 [selumetinib] , state its measured Cmax.
Response: 657

* * *

# assay.explanation: Plasma PK study in WT and NF1 minipigs (LC-MS/MS, noncompartmental)
# Type: in vivo, minipig
# test.parameters: male, minipig, po, 7.3 mg/kg, individual NF1 M minipigs, single oral 7.3 mg/kg, read-out: Tmax
outcome.measure: Tmax (h)
Answers are plain numbers, in h.

Query: Tell us which Tmax value is on record for `Cn1cnc2c(F)c(Nc3ccc(Br)cc3Cl)c(C(=O)NOCCO)cc21`
Response: 1.1

* * *

# assay.explanation: Tissue PK, LC-MS/MS
# Type: in vivo, minipig
# test.parameters: minipig, optic nerve, po, 7.3 mg/kg, Selumetinib concentration in tissues, Optic nerve, Median (All), all 16 minipigs, 2 h after single oral 7.3 mg/kg
outcome.measure: concentration at 2 h (ng/g)
Numbers only, in ng/g.

Query: Output measured concentration at 2 h for this item: `Cn1cnc2c(F)c(Nc3ccc(Br)cc3Cl)c(C(=O)NOCCO)cc21`
Response: 43

* * *

# assay.explanation: Tissue PK, LC-MS/MS
# Assay type: in vivo, minipig
# test.parameters: minipig, optic nerve, po, 7.3 mg/kg, Selumetinib concentration in tissues, Optic nerve, Median (WT), WT minipigs n = 8, 2 h after single oral 7.3 mg/kg
outcome.measure: concentration at 2 h (ng/g)
Numbers only, in ng/g.

Query: Consider the compound Cn1cnc2c(F)c(Nc3ccc(Br)cc3Cl)c(C(=O)NOCCO)cc21 [selumetinib] . State its measured concentration at 2 h.
Response: 29

* * *

# assay.explanation: Tissue PK, LC-MS/MS
# Format: in vivo, minipig
# test.parameters: minipig, cerebral cortex, po, 7.3 mg/kg, Selumetinib concentration in tissues, Cerebral cortex, Median (NF1), NF1 minipigs n = 8, 2 h after single oral 7.3 mg/kg
outcome.measure: concentration at 2 h (ng/g)
Give bare numbers, in ng/g.

Query: For the compound Cn1cnc2c(F)c(Nc3ccc(Br)cc3Cl)c(C(=O)NOCCO)cc21 [selumetinib] , report concentration at 2 h.
Response: 66

* * *

# assay.explanation: Plasma PK study in WT and NF1 minipigs (LC-MS/MS, noncompartmental)
# Format: in vivo, minipig
# test.parameters: male, minipig, po, 7.3 mg/kg, individual NF1 M minipigs, single oral 7.3 mg/kg, read-out: AUC0?∞
outcome.measure: AUC (ng·h/mL)
Give bare numbers, in ng·h/mL.

Query: Answer with the recorded AUC of `Cn1cnc2c(F)c(Nc3ccc(Br)cc3Cl)c(C(=O)NOCCO)cc21` only.
Response: 7930
